- system: T1, CaBdf1 BD2 (GST-tagged, wild-type) (Candida albicans (strain SC5314 / ATCC …, UniProt Q5A4W8))
- T1 chain: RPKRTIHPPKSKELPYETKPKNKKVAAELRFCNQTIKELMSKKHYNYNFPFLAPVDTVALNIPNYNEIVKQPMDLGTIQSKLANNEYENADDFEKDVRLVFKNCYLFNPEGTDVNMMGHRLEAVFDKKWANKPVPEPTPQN
- assay_remarks: histone peptide array (Active Motif MODified), 1 uM GST-tagged bromodomain, anti-GST detection, normalized mean intensity
Square brackets hold non-standard residues; d marks the D form. Ends that are not written are not given here. pS = N[C@@H](COP(=O)(O)O)C(=O)O
Rule: binding score under 0.006 gives False, otherwise True.

binder="PRKQLATKAAR(Me2s)K(Me)[pS]APATGG [H3 16-35]" assigned_label=False

Hi, just wondering whether SGRGKGGKGLGKGGAKRHR (S G R G K G G Kac G L G Kac G G A K R H R) [H4 1-19] shows binding score of 0.006 or higher.
True

// next record SGRGKQGGKARAK(Ac)AKSRSS [H2a 1-19]
True
